Assay: Permeability of the compound at pH 5.5 measured for 4 hrs by UV plate reader based PAMPA assay
Format: ADME
Settings: read-out: permeability
# Papp at 4 h per entry
Only the number, expressed in ×10⁻⁶ cm/s, is required.

input_smiles=Cc1nc([C@@H]2O[C@H](CO)[C@H](O)[C@H](n3cc(-c4cc(F)c(F)c(F)c4)nn3)[C@H]2O)n(-c2cccc(Cl)c2Cl)n1 observed_measurement=42.3
input_smiles=Cc1nc([C@@H]2O[C@H](CO)[C@H](O)[C@H](n3cc(-c4cc(F)c(F)c(F)c4)nn3)[C@H]2O)n(-c2cc(Cl)ccc2Br)n1 observed_measurement=14.5
input_smiles=Cc1nc([C@@H]2O[C@H](CO)[C@H](O)[C@H](n3cc(-c4cc(F)c(F)c(F)c4)nn3)[C@H]2O)n(-c2cc(Cl)ccc2C)n1 observed_measurement=15
input_smiles=OC[C@H]1O[C@@H](n2nncc2-c2cccc(Cl)c2)[C@H](O)[C@@H](n2cc(-c3cc(F)c(F)c(F)c3)nn2)[C@H]1O observed_measurement=3.1
input_smiles=Cc1nc([C@@H]2O[C@H](CO)[C@H](O)[C@H](n3cc(-c4cc(F)c(F)c(F)c4)nn3)[C@H]2O)n(-c2cc(Cl)ccc2F)n1 observed_measurement=12.7

Field request: Papp at 4 h | item: Cc1nc([C@@H]2O[C@H](CO)[C@H](O)[C@H](n3cc(-c4cc(F)c(F)c(F)c4)nn3)[C@H]2O)n(-c2cc(Cl)ccc2C(F)(F)F)n1
51.1

Could you do the same for Cc1nc([C@@H]2O[C@H](CO)[C@H](O)[C@H](n3cc(-c4cc(F)c(F)c(F)c4)nn3)[C@H]2O)n(-c2cccc(Cl)c2)n1 , please?
36.3

Could you do the same for Cc1nc([C@@H]2O[C@H](CO)[C@H](O)[C@H](n3cc(-c4cc(F)c(F)c(F)c4)nn3)[C@H]2O)n(-c2cc(Cl)cc(Cl)c2)n1 , please?
10.8

Could you do the same for COc1ccc(Cl)cc1-n1nc(C)nc1[C@@H]1O[C@H](CO)[C@H](O)[C@H](n2cc(-c3cc(F)c(F)c(F)c3)nn2)[C@H]1O , please?
15.7

Could you do the same for Cc1nc([C@@H]2O[C@H](CO)[C@H](O)[C@H](n3cc(-c4cc(F)c(F)c(F)c4)nn3)[C@H]2O)n(-c2ccc(Cl)c(Cl)c2)n1 , please?
44.4

Could you do the same for Cc1nc([C@@H]2O[C@H](CO)[C@H](O)[C@H](n3cc(-c4cc(F)c(F)c(F)c4)nn3)[C@H]2O)n(-c2cc(Cl)ccc2Cl)n1 , please?
24.7

====

# Cmax per entry
Assay: Cmax in C57BL6 mouse at 10 mg/kg, po measured upto 24 hrs by LC-MS/MS analysis
Format: ADME, organism-based
Set-up: time < 24 hrs, dose 10 mg/kg, route po
Conditions: in vivo
Only the number, expressed in µM, is required.

input_smiles=Cc1nc([C@@H]2O[C@H](CO)[C@H](O)[C@H](n3cc(-c4ccc(Br)c(F)c4F)nn3)[C@H]2O)n(-c2cc(Cl)ccc2C(F)(F)F)n1 unit_label=µM observed_measurement=5
input_smiles=Cc1nc([C@@H]2O[C@H](CO)[C@H](O)[C@H](n3cc(-c4ccc(Cl)c(F)c4F)nn3)[C@H]2O)n(-c2cc(Cl)ccc2C(F)(F)F)n1 unit_label=µM observed_measurement=3.6

Now turn to the next molecule.
Field request: Cmax | item: Cc1nc([C@@H]2O[C@H](CO)[C@H](O)[C@H](n3cc(-c4cc(F)c(Cl)c(F)c4)nn3)[C@H]2O)n(-c2cc(Cl)ccc2C(F)(F)F)n1
5

====

Assay: Oral bioavailability in C57BL6 mouse at 10 mg/kg measured upto 24 hrs by LC-MS/MS analysis
Format: ADME, organism-based
Conditions: in vivo
# bioavailability per entry
Only the number, expressed in %, is required.

input_smiles=Cc1nc([C@@H]2O[C@H](CO)[C@H](O)[C@H](n3cc(-c4cc(F)c(Cl)c(F)c4)nn3)[C@H]2O)n(-c2cc(Cl)ccc2C(F)(F)F)n1 observed_measurement=100

Now turn to the next compound.
Field request: bioavailability | item: Cc1nc([C@@H]2O[C@H](CO)[C@H](O)[C@H](n3cc(-c4ccc(Br)c(F)c4F)nn3)[C@H]2O)n(-c2cc(Cl)ccc2C(F)(F)F)n1
40

====

# AUC(0-t) at 24 h per entry
Test: AUC (0 to 24 hrs) in C57BL6 mouse at 10 mg/kg, po measured upto 24 hrs by LC-MS/MS analysis
Type: ADME, organism-based
Parameters: dose 10 mg/kg, time < 24 hrs, route po
Settings: in vivo
In your response, the unit should come after the numeric value.

Here is how some molecules turned out for AUC(0-t) at 24 h.
input_smiles=Cc1nc([C@@H]2O[C@H](CO)[C@H](O)[C@H](n3cc(-c4ccc(Br)c(F)c4F)nn3)[C@H]2O)n(-c2cc(Cl)ccc2C(F)(F)F)n1 observed_measurement="40 µM·h"
input_smiles=Cc1nc([C@@H]2O[C@H](CO)[C@H](O)[C@H](n3cc(-c4cc(F)c(Cl)c(F)c4)nn3)[C@H]2O)n(-c2cc(Cl)ccc2C(F)(F)F)n1 observed_measurement="40 µM·h"

Now turn to the next molecule.
Field request: AUC(0-t) at 24 h | item: Cc1nc([C@@H]2O[C@H](CO)[C@H](O)[C@H](n3cc(-c4ccc(Cl)c(F)c4F)nn3)[C@H]2O)n(-c2cc(Cl)ccc2C(F)(F)F)n1
37 µM·h

====

Assay: Permeability of the compound at pH 7.4 measured for 4 hrs by UV plate reader based PAMPA assay
Format: ADME
Conditions: read-out: permeability
readout-type: Papp at 4 h (×10⁻⁶ cm/s)
Only the number, expressed in ×10⁻⁶ cm/s, is required.

Here is how some compounds turned out for Papp at 4 h.
input_smiles=Cc1nc([C@@H]2O[C@H](CO)[C@H](O)[C@H](n3cc(-c4cc(F)c(F)c(F)c4)nn3)[C@H]2O)n(-c2cccc(Cl)c2)n1 readout_type="Papp at 4 h" observed_measurement=34.5
input_smiles=Cc1nc([C@@H]2O[C@H](CO)[C@H](O)[C@H](n3cc(-c4cc(F)c(F)c(F)c4)nn3)[C@H]2O)n(-c2cc(Cl)cc(Cl)c2)n1 readout_type="Papp at 4 h" observed_measurement=12.5
input_smiles=Cc1nc([C@@H]2O[C@H](CO)[C@H](O)[C@H](n3cc(-c4cc(F)c(F)c(F)c4)nn3)[C@H]2O)n(-c2cc(Cl)ccc2Cl)n1 readout_type="Papp at 4 h" observed_measurement=30.4
input_smiles=Cc1nc([C@@H]2O[C@H](CO)[C@H](O)[C@H](n3cc(-c4cc(F)c(F)c(F)c4)nn3)[C@H]2O)n(-c2cccc(Cl)c2Cl)n1 readout_type="Papp at 4 h" observed_measurement=45.2
input_smiles=COc1ccc(Cl)cc1-n1nc(C)nc1[C@@H]1O[C@H](CO)[C@H](O)[C@H](n2cc(-c3cc(F)c(F)c(F)c3)nn2)[C@H]1O readout_type="Papp at 4 h" observed_measurement=14
input_smiles=OC[C@H]1O[C@@H](n2nncc2-c2cccc(Cl)c2)[C@H](O)[C@@H](n2cc(-c3cc(F)c(F)c(F)c3)nn2)[C@H]1O readout_type="Papp at 4 h" observed_measurement=3.3

Field request: Papp at 4 h | item: Cc1nc([C@@H]2O[C@H](CO)[C@H](O)[C@H](n3cc(-c4cc(F)c(F)c(F)c4)nn3)[C@H]2O)n(-c2ccc(Cl)c(Cl)c2)n1
45.6

====

Experiment: Permeability of the compound at pH 7.4 measured for 4 hrs by UV plate reader based PAMPA assay
Format: ADME
Details: read-out: permeability
# Papp at 4 h per entry

Field request: Papp at 4 h | item: Cc1nc([C@@H]2O[C@H](CO)[C@H](O)[C@H](n3cc(-c4cc(F)c(F)c(F)c4)nn3)[C@H]2O)n(-c2cc(Cl)ccc2F)n1
12.5 ×10⁻⁶ cm/s

Could you do the same for OC[C@H]1O[C@@H](c2nncn2-c2cccc(Cl)c2)[C@H](O)[C@@H](n2cc(-c3cc(F)c(F)c(F)c3)nn2)[C@H]1O , please?
0.6 ×10⁻⁶ cm/s

Could you do the same for Cc1nc([C@@H]2O[C@H](CO)[C@H](O)[C@H](n3cc(-c4cc(F)c(F)c(F)c4)nn3)[C@H]2O)n(-c2cc(Cl)ccc2C(F)(F)F)n1 , please?
36.9 ×10⁻⁶ cm/s

====

Assay: Metabolic stability of the compound in rat liver microsomes assessed as CYP450-mediated metabolism by measuring parent compound remaining at 0.5 uM measured after 10 mins in presence of NADPH by LC-MS/MS analysis
Type: ADME, Microsome
Conditions: read-out: Stability
readout-type: remaining at 10 min, 0.5 µM

Field request: remaining at 10 min, 0.5 µM | item: Cc1nc([C@@H]2O[C@H](CO)[C@H](O)[C@H](n3cc(-c4cc(F)c(Cl)c(F)c4)nn3)[C@H]2O)n(-c2cc(Cl)ccc2C(F)(F)F)n1
91%
